# TESTED SYSTEM: Protein Kinase A (Mus musculus, UniProt P05132)
# ASSAY: Inhibition constant for PKA (Table 3)
# Assay type: biochemical
ENDPOINT: Ki
Hi, when you answer, please include the unit after the number. Thanks!

If you can, please state the reported Ki value of Nc1ncnc2c1ncn2[C@@H]1O[C@H](CO)[C@@H](O)[C@H]1O [Adenosine] .
43100 nM

###

# TESTED SYSTEM: UniProt P19139
# Sequence (P19139 whole entry): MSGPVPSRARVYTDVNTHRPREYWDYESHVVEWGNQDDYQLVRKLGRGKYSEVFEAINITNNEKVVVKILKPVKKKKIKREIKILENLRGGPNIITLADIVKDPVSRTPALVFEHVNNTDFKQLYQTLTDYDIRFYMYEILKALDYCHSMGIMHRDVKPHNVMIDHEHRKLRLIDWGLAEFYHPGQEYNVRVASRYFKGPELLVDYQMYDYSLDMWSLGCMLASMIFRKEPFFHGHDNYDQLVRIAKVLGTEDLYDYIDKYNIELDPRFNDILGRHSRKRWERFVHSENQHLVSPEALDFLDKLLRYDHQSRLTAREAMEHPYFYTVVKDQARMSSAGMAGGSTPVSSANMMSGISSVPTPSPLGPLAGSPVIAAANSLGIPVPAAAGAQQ
# ASSAY: Protein kinase CK2 activity inhibition, casein substrate, [γ-32P]ATP phosphocellulose paper assay
# Assay type: biochemical
# MEASUREMENT SETUP: 30°C, pH 7.5, 1 mg/mL casein, 30 µM [γ-32P] ATP; n. i. means no inhibition at 100 µM concentration of ligand
ENDPOINT: IC50

If you can, please state the reported IC50 value of N=C(N)NCCC[C@H](NC(=O)[C@H](CCCNC(=N)N)NC(=O)[C@H](CCCNC(=N)N)NC(=O)[C@H](CCCNC(=N)N)NC(=O)[C@H](CCCNC(=N)N)NC(=O)[C@H](CCCNC(=N)N)NC(=O)CCCCCCCNC(=O)[C@H]1O[C@@H](n2cnc3c(N)ncnc32)[C@H](O)[C@@H]1O)C(=O)O .
> 30 µM

Again, but for N=C(N)NCCC[C@H](NC(=O)[C@H](CCCNC(=N)N)NC(=O)[C@H](CCCNC(=N)N)NC(=O)[C@H](CCCNC(=N)N)NC(=O)[C@H](CCCNC(=N)N)NC(=O)[C@H](CCCNC(=N)N)NC(=O)CCCCCNC(=O)[C@H]1O[C@@H](n2cnc3c(N)ncnc32)[C@H](O)[C@@H]1O)C(=O)O
> 30 µM
